Values were extracted from patent US20210277146A1.

Target System: T1, PCSK9-His (UniProt Q8NBP7 31-692)
T1 construct: also called antigen PCSK9-His; Proprotein Convertase Subtilisin/Kexin Type 9; not shown: His tag
T1 sequence (Q8NBP7 31-692 limits assumed): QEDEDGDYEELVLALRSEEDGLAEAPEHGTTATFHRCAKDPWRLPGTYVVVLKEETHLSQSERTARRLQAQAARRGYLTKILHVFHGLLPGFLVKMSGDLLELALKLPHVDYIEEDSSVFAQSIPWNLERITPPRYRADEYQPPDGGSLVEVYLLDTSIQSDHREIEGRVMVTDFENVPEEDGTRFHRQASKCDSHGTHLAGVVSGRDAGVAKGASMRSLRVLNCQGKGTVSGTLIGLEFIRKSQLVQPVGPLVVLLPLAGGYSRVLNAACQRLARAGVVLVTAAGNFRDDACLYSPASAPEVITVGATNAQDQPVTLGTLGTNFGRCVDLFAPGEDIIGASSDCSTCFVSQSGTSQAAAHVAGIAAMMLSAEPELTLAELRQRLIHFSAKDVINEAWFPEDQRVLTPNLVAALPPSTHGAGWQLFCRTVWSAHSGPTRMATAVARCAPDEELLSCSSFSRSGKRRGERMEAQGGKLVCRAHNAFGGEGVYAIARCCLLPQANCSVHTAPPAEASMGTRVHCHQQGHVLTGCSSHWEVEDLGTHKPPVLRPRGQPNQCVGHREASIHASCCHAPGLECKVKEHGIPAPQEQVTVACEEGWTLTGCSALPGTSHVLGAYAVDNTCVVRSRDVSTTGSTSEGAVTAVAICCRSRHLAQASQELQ
Protocol Details: competition ELISA, LDLR-Fc coated, PCSK9-His 2 ug/ml, antibody titrated, anti-His-HRP
Please go through the items and note down their IC50.
Please state the figure in µg/mL; there is no need to write the unit.

*Q* Requested field: IC50. Item: DFSK9-17 complete antibody (antibody, V domains shown) VH: QVQLVQSGAEVKKPGASVKVSCKASGYTVTSYGISWVRQAPGQGLEWMGWVSFYNGNSNYAQKLQGRGTMTTDPSTSTAYMELRSLRSDDTAVYYCARGYSLDVWGQGTTVTVSS VL: DIQMTQSPSSLSASVGDRVTITCRASQNINNWLNWYQQKPGKAPKLLIYGASTRPTGVPSRFSGSGSGTDFTLTISSLQPEDFATYYCQQWDDTPNTFGQGTKVEIK
*A* 0.089

*Q* Same read-out for DFSK9-14 complete antibody (antibody, V domains shown) VH: QVQLVQSGAEVKKPGASVKVSCKASGYSLTSYGISWVRQAPGQGLEWMGWVSFYNGQTNYAQKLQGRGTMTTDPSTSTAYMELRSLRSDDTAVYYCARGYGMSIWGQGTTVTVSS VL: DIQMTQSPSSLSASVGDRVTITCRASQNINSWLNWYQQKPGKAPKLLIYGASSRQSGVPSRFSGSGSGTDFTLTISSLQPEDFATYYCQQWFDVPTTFGQGTKVEIK ?
*A* 0.146

*Q* And DFSK9-21 complete antibody (antibody, V domains shown, also called DF5K9-21) VH: QVQLVQSGAEVKKPGASVKVSCKASGYSLTSYGISWVRQAPGQGLEWMGWVSFYNGQTNYAQKLQGRGTMTTDPSTSTAYMELRSLRSDDTAVYYCARGFGMDRWGQGTTVTVSS VL: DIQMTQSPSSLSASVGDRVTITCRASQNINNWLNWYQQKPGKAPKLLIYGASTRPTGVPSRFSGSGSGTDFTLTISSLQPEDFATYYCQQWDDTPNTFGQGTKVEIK ?
*A* 0.161
